The entries below come with measured pKd values attached.
# System Under Test: T1, human DLL3 (ACRO, DLL3-H52H4) (human, UniProt Q9NYJ7 27-492)
# T1 construct: Bought
# T1 sequence: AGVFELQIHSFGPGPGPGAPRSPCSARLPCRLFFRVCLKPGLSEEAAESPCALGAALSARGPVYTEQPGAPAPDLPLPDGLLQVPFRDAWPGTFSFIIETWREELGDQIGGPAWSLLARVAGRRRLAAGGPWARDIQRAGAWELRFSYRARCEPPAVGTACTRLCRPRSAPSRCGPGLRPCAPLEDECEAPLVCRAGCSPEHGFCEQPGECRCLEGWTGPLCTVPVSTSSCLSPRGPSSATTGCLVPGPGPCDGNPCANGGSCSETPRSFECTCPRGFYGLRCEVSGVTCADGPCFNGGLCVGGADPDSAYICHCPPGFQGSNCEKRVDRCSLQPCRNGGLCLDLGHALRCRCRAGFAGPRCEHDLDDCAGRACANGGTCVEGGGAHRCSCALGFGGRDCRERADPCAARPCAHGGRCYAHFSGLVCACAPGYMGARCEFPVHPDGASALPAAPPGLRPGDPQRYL
# Measurement Notes: SPR Biacore 8K, Ab captured on Protein A
# Source text: Test antibodies were affinity-captured with a Protein A biosensor chip (Cat. #29127556, Cytiva) for 18 seconds, and then the antigens human DLL3 (ACRO, DLL3-H52H4), cynomolgus monkey DLL3 (KACTUS, DLL-RM103), mouse DLL3 (KACTUS, DLL-MM103), human CD3D&3E (ACRO, CDD-H52W1), and monkey CD3D&3E (ACRO, CDD-C52W4) were allowed to flow through the surface of the chip for 180 seconds, followed by 600 seconds of dissociation. […]
pKd: −log10 of the molar value.

Binder: hu98L3H4 (antibody, human IgG1, kappa, V domains shown) VH: EVQLVESGGGLVQPGGSLRLSCAASGFTFSDYGIHWVRQAPGKGLEWVAYISSGGYTSYYADTVKGRFTISRDNAKNSLYLQMNSLRAEDTAVYYCARGDYEDIFYTMDYWGQGTTVTVSS VL: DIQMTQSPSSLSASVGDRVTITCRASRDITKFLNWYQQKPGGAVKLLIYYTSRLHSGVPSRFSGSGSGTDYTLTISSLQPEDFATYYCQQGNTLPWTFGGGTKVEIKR
pKd: 8.95
//
Binder: hu6L4H6 (antibody, human IgG1, kappa, V domains shown) VH: EVQLVQSGSELKKPGASVKVSCKASGYTFTDYYMNWVRQAPGQGLEWMGIINPYSGVTIYNHKFKGRFVLSVDKSSNTAYLQISSLKAEDTAVYYCARQDSLLDYAMDYWGQGTTVTVSS VL: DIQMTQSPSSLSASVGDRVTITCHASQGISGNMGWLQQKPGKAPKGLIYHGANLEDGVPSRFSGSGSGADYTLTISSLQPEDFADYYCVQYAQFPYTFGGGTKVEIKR
pKd: 9.37
//
Binder: hu6L2H13 (antibody, human IgG1, kappa, V domains shown) VH: EVQLVQSGSELKKPGASVKVSCKASGYTFTDYYMNWVKQAPGQGLEWMGIINPYSGVTIYNHKFKGRFALSVDKSSNTAYLQISSLKAEDTAVYYCARQDSLLDYAMDYWGQGTTVTVSS VL: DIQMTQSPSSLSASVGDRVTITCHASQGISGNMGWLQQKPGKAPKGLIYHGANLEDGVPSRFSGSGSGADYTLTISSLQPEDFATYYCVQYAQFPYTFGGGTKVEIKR
pKd: 9.42
//
Binder: hu30L1H9 (antibody, human IgG1, kappa, V domains shown) VH: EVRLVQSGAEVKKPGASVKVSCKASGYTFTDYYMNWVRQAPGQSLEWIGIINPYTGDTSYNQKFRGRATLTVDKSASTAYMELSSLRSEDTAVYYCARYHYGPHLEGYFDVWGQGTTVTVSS VL: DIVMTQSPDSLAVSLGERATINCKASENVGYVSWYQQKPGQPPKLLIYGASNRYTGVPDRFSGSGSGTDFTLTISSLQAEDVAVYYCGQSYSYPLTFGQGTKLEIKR
pKd: 8.63
//
Binder: hu110L1H6 (antibody, human IgG1, kappa, V domains shown) VH: EVQLVQSGAEVKKPGASVKVSCKTSGYTFTDYYMNWVRQAPGQSLEWMGIINPYNVGTSYTQKFKGRVTITVDKSASTAYMELSSLRSEDTAVYYCARHFYDSSYLTYSTMDYWGQGTTVTVSS VL: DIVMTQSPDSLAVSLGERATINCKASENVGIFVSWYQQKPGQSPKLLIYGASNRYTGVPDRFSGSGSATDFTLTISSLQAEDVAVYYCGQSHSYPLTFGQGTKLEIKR
pKd: 9.99
